# reported Selectivity ratio; entries follow
# PROCEDURE SUMMARY: Ratio of affinity towards 5-HT1 to 5-HT2 receptor
Please reply with the number alone, leaving off any unit.

Here's what some known entries look like.
- COMPOUND: "C[C@@H]1C=C2c3cccc4c3[C@H](C[C@H]2N(C)C1)CN4C"
  Selectivity ratio: 8
- COMPOUND: "CN1C[C@H](CO)C[C@@H]2c3cccc4[nH]cc(c34)C[C@H]21"
  Selectivity ratio: 4
- COMPOUND: "C=C1C=C2c3cccc4[nH]cc(c34)C[C@H]2N(C)C1"
  Selectivity ratio: 7
- COMPOUND: "CC1=C[C@@H]2c3cccc4[nH]cc(c34)C[C@H]2N(C)C1 [AGROCLAVINE]"
  Selectivity ratio: 2

Enquiry: Returns the measured Selectivity ratio for the input compound. Input: `COC(=O)[C@@H]1C=C2c3cccc4c3[C@@H](CN4)C[C@H]2N(C)C1`
Return: 40
